All figures here come from patent US8247211B2.

System: Staphylococcus sp.
Assay: In vitro antibacterial evaluation: minimum inhibitory concentration (MIC), broth dilution method
Type: cell-based
Conditions: strain GC 4546; broth dilution, 18 hours at 35° C.
Listed here are molecules together with their documented MIC Staphylococcus haemolyticus (GC 4546).
test-readout: MIC Staphylococcus haemolyticus (GC 4546) (µg/mL)

>>> reported_measurement("CCCC(C)C1OCC2OC(OC3C(CO)OC(Oc4ccc(CC5NC(=O)C(C(C)c6ccccc6)NC(=O)CNC(=O)C(CO)NC(=O)C(C(O)C6CNC(=N)N6C6OC(CO)C(O)C(O)C6O)NC(=O)C(C(O)C6CNC(=N)N6)NC5=O)cc4)C(O)C3O)C(O)C(O)C2O1 (stereo not drawn)")
1
>>> reported_measurement("CC(c1ccccc1)C1NC(=O)CNC(=O)C(CO)NC(=O)C(C(O)C2CNC(=N)N2C2OC(CO)C(O)C(O)C2O)NC(=O)C(C(O)C2CNC(=N)N2)NC(=O)C(Cc2ccc(OC3OC(COC(=O)OCc4ccccc4)C(OC4OC(CO)C(O)C(O)C4O)C(O)C3O)cc2)NC1=O (stereo not drawn)")
4
>>> reported_measurement("COc1ccc(CC2OCC3OC(OC4C(CO)OC(Oc5ccc(CC6NC(=O)C(C(C)c7ccccc7)NC(=O)CNC(=O)C(CO)NC(=O)C(C(O)C7CNC(=N)N7C7OC(CO)C(O)C(O)C7O)NC(=O)C(C(O)C7CNC(=N)N7)NC6=O)cc5)C(O)C4O)C(O)C(O)C3O2)cc1 (stereo not drawn)")
1
>>> reported_measurement("CC(c1ccccc1)C1NC(=O)CNC(=O)C(CO)NC(=O)C(C(O)C2CNC(=N)N2C2OC(CO)C(O)C(O)C2O)NC(=O)C(C(O)C2CNC(=N)N2)NC(=O)C(Cc2ccc(OC3OC(CO)C(OC4OC5COC(c6ccc(-c7ccsc7)cc6)OC5C(O)C4O)C(O)C3O)cc2)NC1=O (stereo not drawn)")
4
>>> reported_measurement("CC(c1ccccc1)C1NC(=O)CNC(=O)C(CO)NC(=O)C(C(O)C2CNC(=N)N2C2OC(CO)C(O)C(O)C2O)NC(=O)C(C(O)C2CNC(=N)N2)NC(=O)C(Cc2ccc(OC3OC(CO)C(OC4OC(CO)C(O)C5OC(c6ccccc6)OC45)C(O)C3O)cc2)NC1=O (single isomer, unassigned) [Example 104a]")
32
>>> reported_measurement("N=C1NCC(C(O)C2NC(=O)C(Cc3ccc(OC4OC(CO)C(OC5OC6COC7(OC6C6OC8(OC56)C5CC6CC(C5)CC8C6)C5CC6CC(C5)CC7C6)C(O)C4O)cc3)NC(=O)C(CC3CCCCC3)NC(=O)CNC(=O)C(CO)NC(=O)C(C(O)C3CNC(=N)N3C3OC(CO)C(O)C(O)C3O)NC2=O)N1 (stereo not drawn) [Example 106b]")
4
>>> reported_measurement("CC(c1ccccc1)C1NC(=O)CNC(=O)C(CO)NC(=O)C(C(O)C2CNC(=N)N2C2OC(CO)C(O)C(O)C2O)NC(=O)C(C(O)C2CNC(=N)N2)NC(=O)C(Cc2ccc(OC3OC(CO)C(OC4OC5COC(C6CCCC6)OC5C(O)C4O)C(O)C3O)cc2)NC1=O (stereo not drawn)")
1
>>> reported_measurement("CC(c1ccccc1)C1NC(=O)CNC(=O)C(CO)NC(=O)C(C(O)C2CNC(=N)N2C2OC(CO)C(O)C(O)C2O)NC(=O)C(C(O)C2CNC(=N)N2)NC(=O)C(Cc2ccc(OC3OC(CO)C(OC4OC5COC(c6cccc(-c7ccccc7)c6)OC5C(O)C4O)C(O)C3O)cc2)NC1=O (stereo not drawn)")
1
>>> reported_measurement("COc1cccc(C2OCC3OC(OC4C(CO)OC(Oc5ccc(CC6NC(=O)C(C(C)c7ccccc7)NC(=O)CNC(=O)C(CO)NC(=O)C(C(O)C7CNC(=N)N7C7OC(CO)C(O)C(O)C7O)NC(=O)C(C(O)C7CNC(=N)N7)NC6=O)cc5)C(O)C4O)C(O)C(O)C3O2)c1 (stereo not drawn)")
1
>>> reported_measurement("COc1cc(C2OCC3OC(OC4C(CO)OC(Oc5ccc(CC6NC(=O)C(C(C)c7ccccc7)NC(=O)CNC(=O)C(CO)NC(=O)C(C(O)C7CNC(=N)N7C7OC(CO)C(O)C(O)C7O)NC(=O)C(C(O)C7CNC(=N)N7)NC6=O)cc5)C(O)C4O)C(O)C(O)C3O2)ccc1[N+](=O)[O-] (stereo not drawn)")
1
>>> reported_measurement("CC(C)=CCOc1cccc(C2OCC3OC(OC4C(CO)OC(Oc5ccc(CC6NC(=O)C(C(C)c7ccccc7)NC(=O)CNC(=O)C(CO)NC(=O)C(C(O)C7CNC(=N)N7C7OC(CO)C(O)C(O)C7O)NC(=O)C(C(O)C7CNC(=N)N7)NC6=O)cc5)C(O)C4O)C(O)C(O)C3O2)c1 (stereo not drawn)")
16
>>> reported_measurement("CC(c1ccccc1)C1NC(=O)CNC(=O)C(CO)NC(=O)C(C(O)C2CNC(=N)N2C2OC(CO)C(O)C(O)C2O)NC(=O)C(C(O)C2CNC(=N)N2)NC(=O)C(Cc2ccc(OC3OC(CO)C(OC4OC5COC(c6ccc7c(c6)OCCO7)OC5C(O)C4O)C(O)C3O)cc2)NC1=O (stereo not drawn)")
1
>>> reported_measurement("CC(c1ccccc1)C1NC(=O)CNC(=O)C(CO)NC(=O)C(C(O)C2CNC(=N)N2C2OC(CO)C(O)C(O)C2O)NC(=O)C(C(O)C2CNC(=N)N2)NC(=O)C(Cc2ccc(OC3OC(CO)C(OC4OC(COC(=O)OCc5ccccc5)C(O)C(O)C4O)C(O)C3O)cc2)NC1=O (stereo not drawn) [Example 101a]")
1
>>> reported_measurement("CCCCOC(=O)CCC1OCC2OC(OC3C(CO)OC(Oc4ccc(CC5NC(=O)C(C(C)c6ccccc6)NC(=O)CNC(=O)C(CO)NC(=O)C(C(O)C6CNC(=N)N6C6OC(CO)C(O)C(O)C6O)NC(=O)C(C(O)C6CNC(=N)N6)NC5=O)cc4)C(O)C3O)C(O)C(O)C2O1 (stereo not drawn)")
1

* * *

Listed here are molecules together with their documented MIC Enterococcus faecalis (GC 4554).
System: Enterococcus sp.
Assay: In vitro antibacterial evaluation: minimum inhibitory concentration (MIC), broth dilution method
Format: cell-based
Settings: Enterococcus faecalis (GC 4554); 18 hours at 35° C.
Numbered stars: 1 amine (or outer) side, 2 acyl side, 3 side chain; on linkers, the order of the positions; unused ones are H or OH. Square brackets hold non-standard residues; d marks the D form. Peptide text beside a SMILES is read from it. ξ: configuration not given here. X3 = CC1(C)OCC2OC(N3C(=N)NCC3C(O)C(N[*:1])C(=O)[*:2])C3OC(C)(C)OC3C2O1; ξEnduracididine(βξ-OH,4'ξ) = N=C1NCC(C(O)C(N)C(=O)O)N1; ξPhe(βξ-Me) = CC(c1ccccc1)C(N)C(=O)O
test-readout: MIC Enterococcus faecalis (GC 4554)

>>> reported_measurement("CC(c1ccccc1)C1NC(=O)CNC(=O)C(CO)NC(=O)C(C(O)C2CNC(=N)N2C2OC3COC(C)(C)OC3C3OC(C)(C)OC32)NC(=O)C(C(O)C2CNC(=N)N2)NC(=O)C(Cc2ccc(O)cc2)NC1=O (stereo not drawn) [Example 247] (cyclo(G[ξPhe(βξ-Me)]Y[ξEnduracididine(βξ-OH,4'ξ)][X3]S); configuration not given here)")
">64 µg/mL"
>>> reported_measurement("CC(c1ccccc1)C1NC(=O)CNC(=O)C(CO)NC(=O)C(C(O)C2CNC(=N)N2C2OC(CO)C(O)C(O)C2O)NC(=O)C(C(O)C2CNC(=N)N2)NC(=O)C(Cc2ccc(OC3OC(CO)C(OC4OC(CO)C(O)C5OC6(CCCCCCCCCCCC6)OC45)C(O)C3O)cc2)NC1=O (stereo not shown) [Example 210a]")
"8 µg/mL"
>>> reported_measurement("CC(c1ccc(Cl)cc1)C1NC(=O)CNC(=O)C(CO)NC(=O)C(C(O)C2CNC(=N)N2C2OC(CO)C(O)C(O)C2O)NC(=O)C(C(O)C2CNC(=N)N2)NC(=O)C(Cc2ccc(OC3OC(CO)C(OC4OC5COC(c6ccccc6)OC5C(O)C4O)C(O)C3O)cc2)NC1=O (stereo not shown)")
"0.5 µg/mL"
>>> reported_measurement("CC(c1ccccc1)C1NC(=O)CNC(=O)C(CO)NC(=O)C(C(O)C2CNC(=N)N2C2OC(CO)C(O)C(O)C2O)NC(=O)C(C(O)C2CNC(=N)N2)NC(=O)C(Cc2ccc(OC3OC(CO)C(OC4OC5COC6(CC(C)(C)CC(C)(C)C6)OC5C(O)C4O)C(O)C3O)cc2)NC1=O (stereo not shown)")
"4 µg/mL"

* * *

System: Staphylococcus sp.
Experiment: In vitro antibacterial evaluation: minimum inhibitory concentration (MIC), broth dilution method
Assay type: cell-based
Details: broth dilution, 18 hours at 35° C.
test-readout: MIC Staphylococcus haemolyticus (GC 4546) (µg/mL)

>>> reported_measurement("CC(c1ccccc1)C1NC(=O)CNC(=O)C(CO)NC(=O)C(C(O)C2CNC(=N)N2C2OC(CO)C(O)C(O)C2O)NC(=O)C(C(O)C2CNC(=N)N2)NC(=O)C(Cc2ccc3oc(C=C(c4ccccc4)c4ccccc4)nc3c2)NC1=O (centres unmarked)")
8
>>> reported_measurement("CC(c1ccccc1)C1NC(=O)CNC(=O)C(CO)NC(=O)C(CC2CN(Cc3ccccc3)C(=N)N2C2OC(CO)C(O)C(O)C2O)NC(=O)C(CC2CNC(=N)N2)NC(=O)C(Cc2ccc(OC3OC(CO)C(OC4OC5COC6(OC5C(O)C4O)C4CC5CC(C4)CC6C5)C(O)C3O)cc2)NC1=O (centres unmarked)")
32
>>> reported_measurement("CC(c1ccccc1)C1NC(=O)CNC(=O)C(CO)NC(=O)C(C(O)C2CNC(=N)N2C2OC(CO)C(O)C(O)C2O)NC(=O)C(C(O)C2CNC(=N)N2)NC(=O)C(Cc2ccc3oc(SCc4ccccc4)nc3c2)NC1=O (centres unmarked)")
4
>>> reported_measurement("CC(C)=CCCC(C)=CCN=C1NCC(C(O)C2NC(=O)C(C(O)C3CNC(=N)N3)NC(=O)C(Cc3ccc(OC4OC(CO)C(OC5OC6COC7(OC6C(O)C5O)C5CC6CC(C5)CC7C6)C(O)C4O)cc3)NC(=O)C(C(C)c3ccccc3)NC(=O)CNC(=O)C(CO)NC2=O)N1C1OC(CO)C(O)C(O)C1O (centres unmarked)")
4
>>> reported_measurement("CC(c1ccccc1)C1NC(=O)CNC(=O)C(CO)NC(=O)C(C(O)C2CN(Cc3ccc4ccccc4c3)C(=N)N2C2OC(CO)C(O)C(O)C2O)NC(=O)C(C(O)C2CNC(=N)N2)NC(=O)C(Cc2ccc(OC3OC(CO)C(OC4OC5COC6(OC5C(O)C4O)C4CC5CC(C4)CC6C5)C(O)C3O)cc2)NC1=O (centres unmarked)")
4
